Test system: HEp-2
Test: Antiproliferative activity against human Hep2 cells after 48 hrs by sulforhodamine B assay
Assay type: functional, cell-based
Details: HEp-2, 48 h
outcome_measure: IC50 (µM)
Numbers only here, please. The scale is µM.

Check out these entries, answers already filled in.
>>> df
                                   compound  experimental_system  measured
0  CC1=C2[C@H]3OC(=O)C4(CC(c5ccc(Br)cc5)=NO4)[C@@H]3CC[C@@]2(C)C=CC1=O (stereo not given in full)                HEp-2       100
1  COc1ccc([C@@H]2CC3(ON2c2ccccc2)C(=O)O[C@@H]2C4=C(C)C(=O)C=C[C@]4(C)CC[C@H]23)cc1Br (stereo not given in full)                HEp-2       100
2  CC1=C2[C@H]3OC(=O)C4(CC(c5c6ccccc6cc6ccccc56)=NO4)[C@@H]3CC[C@@]2(C)C=CC1=O (stereo not given in full)                HEp-2        50
3  COc1ccc([C@H]2CC3(ON2c2ccccc2)C(=O)O[C@@H]2C4=C(C)C(=O)C=C[C@]4(C)CC[C@H]23)cc1Br (stereo not given in full)                HEp-2       100

Here is another compound to look at.
Q: Report IC50 for COc1ccc(C2=NOC3(C2)C(=O)O[C@@H]2C4=C(C)C(=O)C=C[C@]4(C)CC[C@H]23)cc1 (stereo not given in full) please.
Result: 100

---

Catalogue of compounds with associated pIC50
Tested on: HEp-2
Assay: Antiproliferative activity against human Hep2 cells after 48 hrs by sulforhodamine B assay
Type: functional, cell-based
Conditions: HEp-2, 48 h
pIC50 here: minus log base 10 of the concentration, concentration in moles per litre.

Check out these entries, answers already filled in.
                                   compound  measured
0  CC1=C2[C@H]3OC(=O)C4(C[C@@H](c5cccc([N+](=O)[O-])c5)N(c5ccccc5)O4)[C@@H]3CC[C@@]2(C)C=CC1=O (some centres not stated)      4.00
1  CC1=C2[C@H]3OC(=O)C4(C[C@H](c5ccc(Br)cc5)N(c5ccccc5)O4)[C@@H]3CC[C@@]2(C)C=CC1=O (some centres not stated)      4.00
2  CC1=C2[C@H]3OC(=O)C4(C[C@@H](c5ccc([N+](=O)[O-])cc5)N(c5ccccc5)O4)[C@@H]3CC[C@@]2(C)C=CC1=O (single isomer, unassigned)      4.00
3                   O=c1[nH]cc(F)c(=O)[nH]1      5.35
4  CC1=C2[C@H]3OC(=O)C4(C[C@H](c5cccc([N+](=O)[O-])c5)N(c5ccccc5)O4)[C@@H]3CC[C@@]2(C)C=CC1=O (some centres not stated)      4.00

Q: Report pIC50 for CC1=C2[C@H]3OC(=O)C4(CC(c5ccc(O)cc5)=NO4)[C@@H]3CC[C@@]2(C)C=CC1=O (some centres not stated) please.
Result: 4.40

Q: Report pIC50 for CC1=C2[C@H]3OC(=O)C4(CC(c5ccc6ccccc6c5)=NO4)[C@@H]3CC[C@@]2(C)C=CC1=O (some centres not stated) please.
Result: 4.00

---

System: HEp-2
Test: Antiproliferative activity against human Hep2 cells after 48 hrs by sulforhodamine B assay
Assay type: functional, cell-based
Conditions: HEp-2, 48 h
outcome_measure: IC50 (µM)
Numbers only here, please. The scale is µM.

Check out these entries, answers already filled in.
                                   compound  unit_of_measurement  measured
0  CC1=C2[C@H]3OC(=O)C4(C[C@H](c5cccc6ccccc56)N(c5ccccc5)O4)[C@@H]3CC[C@@]2(C)C=CC1=O (some centres not stated)                   µM       100
1  CC1=C2[C@H]3OC(=O)C4(CC(c5ccc([N+](=O)[O-])cc5)=NO4)[C@@H]3CC[C@@]2(C)C=CC1=O (some centres not stated)                   µM       100
2  CC1=C2[C@H]3OC(=O)C4(CC(c5ccc(F)cc5)=NO4)[C@@H]3CC[C@@]2(C)C=CC1=O (some centres not stated)                   µM       100
3  CC1=C2[C@H]3OC(=O)C4(CC(c5ccc(Br)c(F)c5)=NO4)[C@@H]3CC[C@@]2(C)C=CC1=O (some centres not stated)                   µM        33
4  CC1=C2[C@H]3OC(=O)C4(C[C@@H](c5cccc6ccccc56)N(c5ccccc5)O4)[C@@H]3CC[C@@]2(C)C=CC1=O (some centres not stated)                   µM       100
5  CC1=C2[C@H]3OC(=O)C4(C[C@@H](c5cc(Cl)ccc5Cl)N(c5ccccc5)O4)[C@@H]3CC[C@@]2(C)C=CC1=O (some centres not stated)                   µM       0.6

Here is another compound to look at.
Q: Report IC50 for COc1ccc(C2=NOC3(C2)C(=O)O[C@@H]2C4=C(C)C(=O)C=C[C@]4(C)CC[C@H]23)cc1Br (some centres not stated) please.
Result: 100

---

Catalogue of compounds with associated IC50
Test system: MCF7
Assay: Antiproliferative activity against human MCF7 cells after 48 hrs by sulforhodamine B assay
Type: functional, cell-based
Settings: MCF7, 48 h
Numbers only here, please. The scale is µM.

>>> print(df.to_string())
                                   compound  outcome_measure  unit_of_measurement  measured
0  CC1=C2[C@H]3OC(=O)C4(CC(c5ccccc5Cl)=NO4)[C@@H]3CC[C@@]2(C)C=CC1=O (stereo partly drawn)             IC50                   µM       0.5

Q: Report IC50 for CC1=C2[C@H]3OC(=O)C4(CC(c5ccc([N+](=O)[O-])cc5)=NO4)[C@@H]3CC[C@@]2(C)C=CC1=O (stereo partly drawn) please.
Result: 56

Q: Report IC50 for CC1=C2[C@H]3OC(=O)C4(CC(c5c6ccccc6cc6ccccc56)=NO4)[C@@H]3CC[C@@]2(C)C=CC1=O (stereo partly drawn) please.
Result: 0.2

---

Test system: MCF7
Experiment: Antiproliferative activity against human MCF7 cells after 48 hrs by sulforhodamine B assay
Format: functional, cell-based
Details: MCF7, 48 h
Catalogue of compounds with associated pIC50
pIC50 here: minus log base 10 of the concentration, concentration in moles per litre.

In [3]: df
Out[3]:
                                   compound  outcome_measure  measured
0  CC1=C2[C@H]3OC(=O)C4(C[C@H](c5cc(Cl)ccc5Cl)N(c5ccccc5)O4)[C@@H]3CC[C@@]2(C)C=CC1=O (some centres not stated)            pIC50      7.00
1  CC1=C2[C@H]3OC(=O)C4(CC(c5ccc6ccccc6c5)=NO4)[C@@H]3CC[C@@]2(C)C=CC1=O (some centres not stated)            pIC50      4.52
2  CC1=C2[C@H]3OC(=O)C4(C[C@H](c5ccc(F)c(Br)c5)N(c5ccccc5)O4)[C@@H]3CC[C@@]2(C)C=CC1=O (some centres not stated)            pIC50      6.70

Q: Lab request: please report pIC50 under test system MCF7 for CC1=C2[C@H]3OC(=O)C4(C[C@@H](c5ccc(Br)cc5)N(c5ccccc5)O4)[C@@H]3CC[C@@]2(C)C=CC1=O (some centres not stated)
Result: 6.52

Q: Lab request: please report pIC50 under test system MCF7 for CC1=C2[C@H]3OC(=O)C4(C[C@H](c5cc(F)cc(F)c5)N(c5ccccc5)O4)[C@@H]3CC[C@@]2(C)C=CC1=O (some centres not stated)
Result: 7.05

Q: Lab request: please report pIC50 under test system MCF7 for CC1=C2[C@H]3OC(=O)C4(CC(c5cccc(F)c5)=NO4)[C@@H]3CC[C@@]2(C)C=CC1=O (some centres not stated)
Result: 6.40

Q: Lab request: please report pIC50 under test system MCF7 for CC1=C2[C@H]3OC(=O)C4(CC(c5ccc(Cl)cc5Cl)=NO4)[C@@H]3CC[C@@]2(C)C=CC1=O (some centres not stated)
Result: 4.02

Q: Lab request: please report pIC50 under test system MCF7 for CC1=C2[C@H]3OC(=O)C4(C[C@H](c5ccc(Br)cc5)N(c5ccccc5)O4)[C@@H]3CC[C@@]2(C)C=CC1=O (some centres not stated)
Result: 6.10

Q: Lab request: please report pIC50 under test system MCF7 for CC1=C2[C@H]3OC(=O)C4(CC(c5c(Cl)cccc5Cl)=NO4)[C@@H]3CC[C@@]2(C)C=CC1=O (some centres not stated)
Result: 4.57

Q: Lab request: please report pIC50 under test system MCF7 for CC1=C2[C@H]3OC(=O)C4(C[C@H](c5cccc([N+](=O)[O-])c5)N(c5ccccc5)O4)[C@@H]3CC[C@@]2(C)C=CC1=O (some centres not stated)
Result: 4.85

Q: Lab request: please report pIC50 under test system MCF7 for CC1=C2[C@H]3OC(=O)C4(CC(c5cc(F)cc(F)c5)=NO4)[C@@H]3CC[C@@]2(C)C=CC1=O (some centres not stated)
Result: 6.30
